Hey, just so you know, these numbers are from patent EP4786492A1.

# MEASURED_ON: human delta-like ligand 3 (DLL3) on SHP77 cells (human) (UniProt Q9NYJ7)
# Sequence (Q9NYJ7 27-618, stated change not applied): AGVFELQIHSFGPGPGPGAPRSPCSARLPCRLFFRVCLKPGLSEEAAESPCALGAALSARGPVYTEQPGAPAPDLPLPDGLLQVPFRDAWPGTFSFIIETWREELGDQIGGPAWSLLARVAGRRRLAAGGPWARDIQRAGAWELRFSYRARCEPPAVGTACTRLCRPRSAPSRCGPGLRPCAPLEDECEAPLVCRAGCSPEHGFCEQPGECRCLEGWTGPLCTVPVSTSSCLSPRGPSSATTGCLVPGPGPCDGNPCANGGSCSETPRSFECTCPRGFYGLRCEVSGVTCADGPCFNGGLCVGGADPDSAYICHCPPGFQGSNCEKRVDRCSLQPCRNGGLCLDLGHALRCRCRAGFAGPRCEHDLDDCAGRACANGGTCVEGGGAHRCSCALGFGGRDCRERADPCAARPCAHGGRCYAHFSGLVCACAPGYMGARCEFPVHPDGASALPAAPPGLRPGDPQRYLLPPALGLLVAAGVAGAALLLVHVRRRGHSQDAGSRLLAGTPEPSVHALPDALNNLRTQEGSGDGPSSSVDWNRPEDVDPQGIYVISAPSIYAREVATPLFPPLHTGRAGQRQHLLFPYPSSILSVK
# PROTOCOL_DESCRIPTION: FACS on SHP77 cells
MEASURED_ATTRIBUTE: MFI at 0.16 nM (MFI)
Only the number, expressed in MFI, is required.

Query string: Consider the binder Hab014VL3VH1-hFc (scFv, part only; not given: VL-VH linker and human IgG1 Fc, V domains shown, not shown: another chain or arm of the molecule; a dimerising Fc or GST; small tags and cut ends) VL: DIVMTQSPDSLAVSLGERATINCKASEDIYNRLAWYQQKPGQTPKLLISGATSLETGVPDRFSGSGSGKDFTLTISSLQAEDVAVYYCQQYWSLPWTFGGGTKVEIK VH: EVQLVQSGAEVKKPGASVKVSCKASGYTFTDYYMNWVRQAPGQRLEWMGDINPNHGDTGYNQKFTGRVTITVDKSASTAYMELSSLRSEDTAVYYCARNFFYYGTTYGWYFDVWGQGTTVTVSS and give its measured MFI at 0.16 nM.
Result string: 179

Query string: Similarly, Hab015VL4VH1a-hFc (scFv, part only; not given: scFv linker and human IgG1 Fc, V domains shown, not shown: another chain or arm of the molecule; a dimerising Fc or GST; small tags and cut ends) VL: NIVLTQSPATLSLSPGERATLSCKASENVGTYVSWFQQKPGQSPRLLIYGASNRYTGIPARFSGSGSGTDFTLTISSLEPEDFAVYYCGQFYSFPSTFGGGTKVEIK VH: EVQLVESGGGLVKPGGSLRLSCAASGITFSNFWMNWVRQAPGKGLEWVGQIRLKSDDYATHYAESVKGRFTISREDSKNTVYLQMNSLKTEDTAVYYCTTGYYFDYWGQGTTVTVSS ?
Result string: 385

Query string: Similarly, Hab013VL2VH2a-hFc (scFv, part only; not given: scFv linker and human IgG1 Fc, V domains shown, not shown: another chain or arm of the molecule; a dimerising Fc or GST; small tags and cut ends) VL: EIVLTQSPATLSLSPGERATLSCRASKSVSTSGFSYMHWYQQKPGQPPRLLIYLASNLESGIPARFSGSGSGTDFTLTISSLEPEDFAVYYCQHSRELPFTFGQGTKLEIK VH: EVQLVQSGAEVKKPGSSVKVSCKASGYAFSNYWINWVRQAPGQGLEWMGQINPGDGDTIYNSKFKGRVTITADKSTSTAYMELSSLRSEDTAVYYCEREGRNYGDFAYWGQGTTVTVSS ?
Result string: 323

Query string: Similarly, Hab008L3H2a-hFc (scFv, part only; not given: VL-VH linker and human IgG1 Fc, V domains shown, not shown: another chain or arm of the molecule; a dimerising Fc or GST; small tags and cut ends) VL: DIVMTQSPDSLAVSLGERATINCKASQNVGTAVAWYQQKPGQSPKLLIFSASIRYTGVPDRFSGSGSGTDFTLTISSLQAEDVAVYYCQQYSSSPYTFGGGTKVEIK VH: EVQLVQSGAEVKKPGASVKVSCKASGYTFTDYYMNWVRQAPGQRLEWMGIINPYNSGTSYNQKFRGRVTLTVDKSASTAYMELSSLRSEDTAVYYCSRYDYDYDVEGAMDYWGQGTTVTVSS ?
Result string: 129

Query string: Similarly, Hab015VL5VH6a-hFc (scFv, part only; not given: scFv linker and human IgG1 Fc, V domains shown, not shown: another chain or arm of the molecule; a dimerising Fc or GST; small tags and cut ends) VL: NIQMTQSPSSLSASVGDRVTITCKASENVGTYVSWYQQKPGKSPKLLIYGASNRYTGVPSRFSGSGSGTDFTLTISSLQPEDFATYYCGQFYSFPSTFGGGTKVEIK VH: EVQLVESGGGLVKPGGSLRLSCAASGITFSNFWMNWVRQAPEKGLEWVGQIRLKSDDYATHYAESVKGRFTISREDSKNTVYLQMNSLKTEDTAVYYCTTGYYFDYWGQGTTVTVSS ?
Result string: 362
